# tested_system: T1, Human SIRPαV1 (NP_542970.1), Extracellular Domain + His-Tag (human, UniProt P78324 31-373)
# T1 construct: also called huSIRPαV1; hSIRPαV1; not shown: His-Tag
# T1 sequence (P78324 other isoform, or with tags, fused parts or gaps): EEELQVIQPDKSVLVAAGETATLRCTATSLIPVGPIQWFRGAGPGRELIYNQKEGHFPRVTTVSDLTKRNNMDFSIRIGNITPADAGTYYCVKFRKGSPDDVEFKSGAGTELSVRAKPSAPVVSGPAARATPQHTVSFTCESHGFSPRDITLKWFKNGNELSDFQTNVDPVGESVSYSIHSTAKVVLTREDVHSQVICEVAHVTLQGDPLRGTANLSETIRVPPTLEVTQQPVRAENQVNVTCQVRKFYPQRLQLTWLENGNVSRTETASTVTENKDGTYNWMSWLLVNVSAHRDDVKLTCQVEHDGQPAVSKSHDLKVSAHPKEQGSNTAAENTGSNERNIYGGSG
# experimental_details: SPR, antibody captured on Protein A/G, ECD-His analyte, 1:1 fit
Rule: Kd below 2 nM gives rule met. Equal to or above 2 nM gives rule not met.

Would you please look over these solved cases?
binder: Antibody E7 (antibody, human IgG1, kappa, L234A L235A, V domains shown) VH: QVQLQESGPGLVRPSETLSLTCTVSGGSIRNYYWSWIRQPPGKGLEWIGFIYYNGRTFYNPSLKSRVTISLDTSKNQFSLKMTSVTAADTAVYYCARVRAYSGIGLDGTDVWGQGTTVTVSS VL: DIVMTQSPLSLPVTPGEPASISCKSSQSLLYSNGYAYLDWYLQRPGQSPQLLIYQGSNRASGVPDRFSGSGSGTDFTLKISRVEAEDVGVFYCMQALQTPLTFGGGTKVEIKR
category_label: rule met

binder: Antibody E17 (antibody, human IgG1, kappa, L234A L235A, V domains shown) VH: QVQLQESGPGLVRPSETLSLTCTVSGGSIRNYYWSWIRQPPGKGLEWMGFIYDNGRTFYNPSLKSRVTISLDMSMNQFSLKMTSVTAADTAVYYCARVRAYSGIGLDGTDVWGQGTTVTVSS VL: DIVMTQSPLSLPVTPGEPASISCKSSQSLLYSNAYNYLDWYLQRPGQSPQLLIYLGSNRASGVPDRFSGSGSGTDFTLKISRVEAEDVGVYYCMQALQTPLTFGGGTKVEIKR
category_label: rule not met

binder: Antibody E6 (antibody, human IgG1, kappa, L234A L235A, V domains shown) VH: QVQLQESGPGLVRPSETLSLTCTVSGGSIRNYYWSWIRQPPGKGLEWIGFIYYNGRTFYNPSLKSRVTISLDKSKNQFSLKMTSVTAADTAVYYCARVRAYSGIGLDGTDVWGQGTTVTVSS VL: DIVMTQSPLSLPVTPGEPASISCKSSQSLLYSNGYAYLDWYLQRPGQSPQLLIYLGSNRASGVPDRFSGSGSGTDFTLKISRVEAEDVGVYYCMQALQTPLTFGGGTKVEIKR
category_label: rule met

Ask | Consider Antibody A13 (antibody, human IgG1, kappa, L234A L235A, V domains shown) VH: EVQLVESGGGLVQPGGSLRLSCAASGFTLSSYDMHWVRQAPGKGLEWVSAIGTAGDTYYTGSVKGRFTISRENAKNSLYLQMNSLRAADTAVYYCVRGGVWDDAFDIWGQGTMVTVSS VL: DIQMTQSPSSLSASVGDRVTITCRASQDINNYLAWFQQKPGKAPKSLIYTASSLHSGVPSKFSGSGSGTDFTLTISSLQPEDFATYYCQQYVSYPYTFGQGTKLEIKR . Does its Kd lie strictly below 2 nM?
Reply | rule not met

Ask | Confirm or reject: Kd of Antibody A3 (antibody, human IgG1, kappa, L234A L235A, V domains shown) VH: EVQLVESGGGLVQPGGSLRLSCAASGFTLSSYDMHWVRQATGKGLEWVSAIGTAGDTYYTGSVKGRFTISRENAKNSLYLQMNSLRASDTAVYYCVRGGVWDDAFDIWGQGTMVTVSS VL: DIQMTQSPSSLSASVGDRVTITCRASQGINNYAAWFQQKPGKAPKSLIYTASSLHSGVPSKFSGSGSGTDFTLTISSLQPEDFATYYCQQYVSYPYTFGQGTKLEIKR lies strictly below 2 nM
Reply | rule not met

From: patent US20230012273A1
